B1: Osa-1-4 twister ribozyme (parent)
chain: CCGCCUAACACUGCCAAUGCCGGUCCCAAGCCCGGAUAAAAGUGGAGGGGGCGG

Variants of: B1
test-method-notes: self-cleavage, relative activity (ratio to wild type); higher = more cleavage; co-transcriptional
Consider the reported self-cleavage of an entry and match it to a band in b0: < 0.06; b1: ≥ 0.06 and < 0.2; b2: ≥ 0.2

Here are 5 variants together with their reported answers.
variant-name: C31U G54A
assigned-label: b2

variant-name: A28C G13C
assigned-label: b0

variant-name: A39C A8C
assigned-label: b1

variant-name: G53C U18G
assigned-label: b1

variant-name: A38C A40G
assigned-label: b2

Prompt: Which of the defined bands does the recorded self-cleavage of G42A G51A sit within?
Response: b2
